Reported EC50 is given for each of the following compounds.
tested on: KB; test: Cytotoxicity against human KB cells; assay type: functional; conditions: read-out: ED50 (the source's name)
property.name: EC50 (µg/mL)

[[record]]
compound = "CC1(C)CCC2=C(O1)C(=O)c1ccccc1C2=O"
property_name = "EC50"
unit_name = "µg/mL"
experimental_value = 13

[[record]]
compound = "CC(=O)c1cc2c(o1)C(=O)c1ccccc1C2=O"
property_name = "EC50"
unit_name = "µg/mL"
experimental_value = 0.2

[[record]]
compound = "C=C(C)C1CC2=C(O1)C(=O)c1ccccc1C2=O (stereo not drawn) [DEHYDROISO-ALPHA-LAPACHONE]"
property_name = "EC50"
unit_name = "µg/mL"
experimental_value = 0.2

[[record]]
compound = "CC(O)c1cc2c(o1)C(=O)c1ccccc1C2=O (centres undefined)"
property_name = "EC50"
unit_name = "µg/mL"
experimental_value = 0.5


* * *

assay: Cytotoxicity against human multidrug resistant KB-V cells; format: functional; conditions: KBV, read-out: ED50 (the source's name)
property.name: EC50 (µg/mL)

[[record]]
compound = "CC(=O)c1cc2c(o1)C(=O)c1ccccc1C2=O"
experimental_value = 0.9

[[record]]
compound = "CC1(C)CCC2=C(O1)C(=O)c1ccccc1C2=O"
experimental_value = 12.9

[[record]]
compound = "C=C(C)C1CC2=C(O1)C(=O)c1ccccc1C2=O (stereo not drawn) [DEHYDROISO-ALPHA-LAPACHONE]"
experimental_value = 0.5

[[record]]
compound = "CC(O)c1cc2c(o1)C(=O)c1ccccc1C2=O (centres undefined)"
experimental_value = 2


* * *

experiment: Cytotoxicity against human BC1 cells; format: functional; conditions: read-out: ED50 (the source's name)
property.name: EC50

[[record]]
compound = "CC1(C)CCC2=C(O1)C(=O)c1ccccc1C2=O [ALPHA-LAPACHONE]"
property_name = "EC50"
experimental_value = "6.7 µg/mL"

[[record]]
compound = "CC(O)c1cc2c(o1)C(=O)c1ccccc1C2=O (centres undefined)"
property_name = "EC50"
experimental_value = "3.2 µg/mL"

[[record]]
compound = "CC(=O)c1cc2c(o1)C(=O)c1ccccc1C2=O [NAPABUCASIN]"
property_name = "EC50"
experimental_value = "0.4 µg/mL"

[[record]]
compound = "C=C(C)C1CC2=C(O1)C(=O)c1ccccc1C2=O (stereo not drawn) [DEHYDROISO-ALPHA-LAPACHONE]"
property_name = "EC50"
experimental_value = "1 µg/mL"

